Task for the reader: assign each of the following variants its reported protein stability index.
B1: BTBD1 (parent)
chain: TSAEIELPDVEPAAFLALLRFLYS

Variants of: B1
Assay: protein stability index of a GFP-peptide fusion (GPS, HEK-293T) (PSI 1-6); higher = more stable;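 note: lentivirally expressed fusions sorted by FACS into six bins by GFP to DsRed ratio, PSI derived from sequencing read proportions per bin multiplied by bin number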
Conditions: c terminus: a fixed tail appended
Give bare numbers.

Sample records with protein stability index:
E11S = 1.73
I5W = 2
A14L = 1.4
Y23Q = 2.21

Count: 2. Required value per item: protein stability index.
1. R20A
2. P12K

Response given:
2.08
1.61

# map each variant to its protein stability index
1. A13L
2. V10R
3. P8V
4. P12C

Response given:
1. 1.81
2. 2.09
3. 2.48
4. 2.3

For each of the variants below, note its protein stability index.
1. A17W
2. A17Q
3. L19R

Response given:
[2, 1.61, 1.84]

Each recorded value in this set is attributed to the supplement of paper PMC10567573.
